// reported Inhibition of binding (%) for each item listed
system: T1, human TSH receptor (full length), coated on tubes (human, UniProt P16473 22-764)
T1 construct: TSHR coated tubes as described in WO2004/050708A2; Exact preparation on the tubes is not detailed here; also called thyroid stimulating hormone receptor
assay_overview: competition with 125I-K1-18 IgG on TSHR coated tubes; 30 µg/mL, diluted in HBD serum pool

[
  {
    "binder": "K1-70 Fab (Fab, V domains shown) VH: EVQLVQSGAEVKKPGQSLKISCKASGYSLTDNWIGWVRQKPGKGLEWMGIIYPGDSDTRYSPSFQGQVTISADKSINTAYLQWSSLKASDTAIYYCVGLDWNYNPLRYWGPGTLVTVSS VL: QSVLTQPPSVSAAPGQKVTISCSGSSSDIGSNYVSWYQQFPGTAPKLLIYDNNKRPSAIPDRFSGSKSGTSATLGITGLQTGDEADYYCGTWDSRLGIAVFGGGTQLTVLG",
    "units_of_measure": "%",
    "Inhibition of binding (%)": 91.8
  },
  {
    "binder": "K1-18 IgG (antibody, V domains shown) VH: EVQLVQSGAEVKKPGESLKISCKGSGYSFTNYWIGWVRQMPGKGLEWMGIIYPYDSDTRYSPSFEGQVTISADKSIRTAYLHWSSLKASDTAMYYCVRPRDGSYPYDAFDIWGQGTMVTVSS VL: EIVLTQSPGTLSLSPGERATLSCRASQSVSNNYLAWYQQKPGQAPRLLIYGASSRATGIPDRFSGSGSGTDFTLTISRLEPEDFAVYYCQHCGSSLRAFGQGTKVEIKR",
    "units_of_measure": "%",
    "Inhibition of binding (%)": 95.6
  },
  {
    "binder": "K1-18 Fab (Fab, V domains shown) VH: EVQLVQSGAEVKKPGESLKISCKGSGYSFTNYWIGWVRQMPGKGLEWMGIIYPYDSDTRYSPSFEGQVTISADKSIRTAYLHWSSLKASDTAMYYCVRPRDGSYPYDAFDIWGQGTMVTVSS VL: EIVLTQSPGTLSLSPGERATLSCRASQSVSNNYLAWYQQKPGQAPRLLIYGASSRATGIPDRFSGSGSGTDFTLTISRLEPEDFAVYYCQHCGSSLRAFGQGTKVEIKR",
    "units_of_measure": "%",
    "Inhibition of binding (%)": 85
  },
  {
    "binder": "K1-70 IgG (antibody, V domains shown) VH: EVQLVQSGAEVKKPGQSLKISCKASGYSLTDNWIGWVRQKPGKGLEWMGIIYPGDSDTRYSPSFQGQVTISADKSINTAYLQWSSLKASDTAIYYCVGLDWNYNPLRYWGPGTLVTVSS VL: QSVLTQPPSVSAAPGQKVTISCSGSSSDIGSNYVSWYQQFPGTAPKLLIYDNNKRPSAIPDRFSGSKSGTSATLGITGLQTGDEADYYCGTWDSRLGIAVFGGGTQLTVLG",
    "units_of_measure": "%",
    "Inhibition of binding (%)": 93.9
  }
]
